The measurements presented in this section are drawn from ChEMBL document CHEMBL5579809.

Target: Protein cereblon/CREB-binding protein (Homo sapiens) (UniProt Q92793+Q96SW2)
Sequence (Q92793 2-2442 limits assumed): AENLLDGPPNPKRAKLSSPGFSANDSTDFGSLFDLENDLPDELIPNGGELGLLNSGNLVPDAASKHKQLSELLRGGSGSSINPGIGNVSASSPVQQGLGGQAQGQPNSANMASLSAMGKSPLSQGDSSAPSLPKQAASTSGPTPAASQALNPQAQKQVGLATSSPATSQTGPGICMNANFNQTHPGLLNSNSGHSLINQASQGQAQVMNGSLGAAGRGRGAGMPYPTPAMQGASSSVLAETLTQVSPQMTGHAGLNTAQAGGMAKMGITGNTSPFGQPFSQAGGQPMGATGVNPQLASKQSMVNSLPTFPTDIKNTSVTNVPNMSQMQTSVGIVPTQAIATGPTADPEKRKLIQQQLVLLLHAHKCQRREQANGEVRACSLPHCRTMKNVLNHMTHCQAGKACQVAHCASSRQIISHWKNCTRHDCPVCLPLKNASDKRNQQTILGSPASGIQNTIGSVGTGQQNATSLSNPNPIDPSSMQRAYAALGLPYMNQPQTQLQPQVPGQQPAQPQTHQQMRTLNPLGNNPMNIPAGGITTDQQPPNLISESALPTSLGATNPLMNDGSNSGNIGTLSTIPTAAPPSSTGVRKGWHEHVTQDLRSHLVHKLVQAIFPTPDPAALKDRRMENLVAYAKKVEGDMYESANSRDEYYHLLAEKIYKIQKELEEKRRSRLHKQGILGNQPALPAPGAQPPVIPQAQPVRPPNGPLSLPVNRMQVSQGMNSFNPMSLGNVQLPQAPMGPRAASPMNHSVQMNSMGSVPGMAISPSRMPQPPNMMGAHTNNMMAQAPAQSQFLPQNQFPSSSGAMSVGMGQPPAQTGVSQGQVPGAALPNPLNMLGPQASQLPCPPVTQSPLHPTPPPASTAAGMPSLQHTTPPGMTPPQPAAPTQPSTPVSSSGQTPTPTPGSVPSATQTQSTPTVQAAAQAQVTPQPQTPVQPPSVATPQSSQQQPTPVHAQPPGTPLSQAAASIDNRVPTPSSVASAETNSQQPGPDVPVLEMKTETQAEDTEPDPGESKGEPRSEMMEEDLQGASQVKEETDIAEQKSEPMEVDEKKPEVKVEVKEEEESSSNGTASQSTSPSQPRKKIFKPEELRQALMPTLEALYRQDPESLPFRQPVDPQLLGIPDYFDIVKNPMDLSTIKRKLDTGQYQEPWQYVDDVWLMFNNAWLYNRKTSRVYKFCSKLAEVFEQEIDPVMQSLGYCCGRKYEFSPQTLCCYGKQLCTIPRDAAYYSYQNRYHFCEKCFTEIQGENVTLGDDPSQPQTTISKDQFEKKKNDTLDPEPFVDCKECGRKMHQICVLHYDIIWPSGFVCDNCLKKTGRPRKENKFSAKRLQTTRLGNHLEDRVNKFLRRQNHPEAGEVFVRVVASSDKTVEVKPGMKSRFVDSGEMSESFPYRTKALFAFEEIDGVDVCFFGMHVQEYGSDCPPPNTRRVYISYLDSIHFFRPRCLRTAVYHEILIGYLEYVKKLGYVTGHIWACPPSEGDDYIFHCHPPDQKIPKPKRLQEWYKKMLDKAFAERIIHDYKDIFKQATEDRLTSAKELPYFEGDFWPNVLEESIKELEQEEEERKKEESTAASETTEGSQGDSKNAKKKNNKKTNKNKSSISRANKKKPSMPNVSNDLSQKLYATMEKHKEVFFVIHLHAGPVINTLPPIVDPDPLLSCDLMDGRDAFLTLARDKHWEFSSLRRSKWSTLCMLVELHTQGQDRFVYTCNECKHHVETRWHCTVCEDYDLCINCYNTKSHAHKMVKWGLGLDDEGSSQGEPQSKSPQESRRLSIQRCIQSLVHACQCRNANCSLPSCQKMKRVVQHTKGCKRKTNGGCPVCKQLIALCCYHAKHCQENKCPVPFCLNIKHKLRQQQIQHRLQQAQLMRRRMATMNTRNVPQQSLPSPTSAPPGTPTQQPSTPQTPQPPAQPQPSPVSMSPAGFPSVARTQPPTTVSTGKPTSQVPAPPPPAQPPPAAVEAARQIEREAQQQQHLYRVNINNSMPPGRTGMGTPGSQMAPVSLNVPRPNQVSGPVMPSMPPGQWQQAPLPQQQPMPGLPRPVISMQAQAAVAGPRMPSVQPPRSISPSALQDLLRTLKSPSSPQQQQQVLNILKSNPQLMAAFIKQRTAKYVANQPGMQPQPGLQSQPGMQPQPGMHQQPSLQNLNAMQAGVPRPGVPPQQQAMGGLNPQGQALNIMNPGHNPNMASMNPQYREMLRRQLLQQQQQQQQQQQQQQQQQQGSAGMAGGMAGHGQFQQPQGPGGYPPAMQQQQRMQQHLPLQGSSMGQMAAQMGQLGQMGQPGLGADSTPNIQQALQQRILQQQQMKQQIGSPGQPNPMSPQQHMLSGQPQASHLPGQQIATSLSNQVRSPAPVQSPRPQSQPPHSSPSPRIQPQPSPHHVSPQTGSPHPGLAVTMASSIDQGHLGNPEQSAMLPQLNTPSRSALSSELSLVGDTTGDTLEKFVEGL
Sequence (Q96SW2 whole entry partner): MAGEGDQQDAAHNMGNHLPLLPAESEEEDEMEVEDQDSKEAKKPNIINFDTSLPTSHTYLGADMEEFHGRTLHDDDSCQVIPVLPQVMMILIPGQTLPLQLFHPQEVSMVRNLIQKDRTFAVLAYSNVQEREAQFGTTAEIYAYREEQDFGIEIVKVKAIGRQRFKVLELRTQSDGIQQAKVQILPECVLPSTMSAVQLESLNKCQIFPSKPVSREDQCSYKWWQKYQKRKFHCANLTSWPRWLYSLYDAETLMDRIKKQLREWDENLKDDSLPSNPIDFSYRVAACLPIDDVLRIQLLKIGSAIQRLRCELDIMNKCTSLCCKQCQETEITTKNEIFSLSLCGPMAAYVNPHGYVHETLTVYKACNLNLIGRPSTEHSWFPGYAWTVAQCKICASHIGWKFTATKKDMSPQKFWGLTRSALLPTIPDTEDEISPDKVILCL
Assay: PROTAC activity at CRBN/HiBiT-tagged CBP in human HAP1 cells assessed as induction of CBP degradation by measuring maximal efficacy at 100 nM measured over 24 hrs by luminescence based analysis relative to control
Format: cell-based
property_name: Emax (%)

{"columns": ["compound", "assay_value"],
 "data": [
  ["CNC(=O)N1CCc2c(c(N3CCCc4cc(-c5cnn(C)c5)c(C(F)F)cc43)nn2C2CCN(C(=O)CCOCCOCCOCCOCCOCCOCCNc3ccc4c(c3)C(=O)N(C3CCC(=O)NC3=O)C4=O)CC2)C1 (stereo not drawn)", 86],
  ["CNC(=O)N1CCc2c(c(N3CCCc4cc(-c5cnn(CC(=O)NCCOCCNc6ccc7c(c6)C(=O)N(C6CCC(=O)NC6=O)C7=O)c5)c(C(F)F)cc43)nn2C2CCOCC2)C1 (stereo not drawn)", 63],
  ["CNC(=O)N1CCc2c(c(N3CCCc4cc(-c5cnn(C)c5)c(C(F)(F)F)cc43)nn2C2CCN(C(=O)CCOCCOCCOCCOCCNc3ccc4c(c3)C(=O)N(C3CCC(=O)NC3=O)C4=O)CC2)C1 (stereo not drawn)", 88]
]}

---

Biological target: Protein cereblon/CREB-binding protein (Homo sapiens) (UniProt Q92793+Q96SW2)
Experiment: PROTAC activity at CRBN/HiBiT-tagged CBP in human HAP1 cells assessed as induction of CBP degradation by measuring maximal efficacy at 1 nM measured over 24 hrs by luminescence based analysis relative to control
Type: cell-based
Kind request: treat 30% as inclusive, so Emax at 30% or higher is Y, anything lower is N.

{"columns": ["molecule", "assigned_label"],
 "data": [
  ["CNC(=O)N1CCc2c(c(N3CCCc4cc(-c5cnn(C)c5)c(C(F)F)cc43)nn2C2CCN(C(=O)CCOCCOCCOCCOCCNc3ccc4c(c3)C(=O)N(C3CCC(=O)NC3=O)C4=O)CC2)C1 (stereo not given)", "Y"],
  ["CNC(=O)N1CCc2c(c(N3CCCc4cc(-c5cnn(CC(=O)NCCOCCNc6ccc7c(c6)C(=O)N(C6CCC(=O)NC6=O)C7=O)c5)c(C(F)F)cc43)nn2C2CCOCC2)C1 (stereo not given)", "N"],
  ["CNC(=O)N1CCc2c(c(N3CCCc4cc(-c5cnn(C)c5)c(C(F)F)cc43)nn2C2CCN(C(=O)CCOCCNc3ccc4c(c3)C(=O)N(C3CCC(=O)NC3=O)C4=O)CC2)C1 (stereo not given)", "Y"],
  ["CNC(=O)N1CCc2c(c(N3CCCc4cc(-c5cnn(C)c5)c(C(F)(F)F)cc43)nn2C2CCN(C(=O)CCOCCOCCOCCOCCNc3ccc4c(c3)C(=O)N(C3CCC(=O)NC3=O)C4=O)CC2)C1 (stereo not given)", "Y"],
  ["CNC(=O)N1CCc2c(c(N3CCCc4cc(-c5cnn(C)c5)c(C(F)F)cc43)nn2C2CCN(C(=O)CCOCCOCCOCCOCCOCCOCCNc3ccc4c(c3)C(=O)N(C3CCC(=O)NC3=O)C4=O)CC2)C1 (stereo not given)", "Y"]
]}

---

# AUC values compiled below
Target: Protein cereblon/CREB-binding protein (Homo sapiens) (UniProt Q92793+Q96SW2)
Experiment: PROTAC activity at CRBN/HiBiT-tagged CBP in human HAP1 cells assessed as total cumulative degradation by measuring AUC at 1000 nM measured over 24 hrs by luminescence based analysis
Format: cell-based

{"columns": ["molecule", "AUC"],
 "data": [
  ["CNC(=O)N1CCc2c(c(N3CCN(C(=O)NCCOCCOCCOCCOCCOCCOCCNc4ccc5c(c4)C(=O)N(C4CCC(=O)NC4=O)C5=O)c4cc(-c5cnn(C)c5)c(C(F)(F)F)cc43)nn2C2CCOCC2)C1 (stereo not given)", 23],
  ["CNC(=O)N1CCc2c(c(N3CCCc4cc(-c5cnn(C)c5)c(C(F)F)cc43)nn2C2CCN(C(=O)CCOCCOCCOCCOCCNc3ccc4c(c3)C(=O)N(C3CCC(=O)NC3=O)C4=O)CC2)C1 (stereo not given)", 6.4],
  ["CNC(=O)N1CCc2c(c(N3CCN(C(=O)NCCOCCOCCOCCOCCNc4ccc5c(c4)C(=O)N(C4CCC(=O)NC4=O)C5=O)c4cc(-c5cnn(C)c5)c(C(F)(F)F)cc43)nn2C2CCOCC2)C1 (stereo not given)", 24.2],
  ["CNC(=O)N1CCc2c(c(N3CCCc4cc(-c5cnn(C)c5)c(C(F)F)cc43)nn2C2CCN(C(=O)CCOCCOCCOCCOCCOCCOCCNc3ccc4c(c3)C(=O)N(C3CCC(=O)NC3=O)C4=O)CC2)C1 (stereo not given)", 6.6],
  ["CNC(=O)N1CCc2c(c(N3CCCc4cc(-c5cnn(CC(=O)NCCOCCOCCOCCOCCNc6ccc7c(c6)C(=O)N(C6CCC(=O)NC6=O)C7=O)c5)c(C(F)F)cc43)nn2C2CCOCC2)C1 (stereo not given)", 17.8],
  ["CNC(=O)N1CCc2c(c(N3CCCc4cc(-c5cnn(C)c5)c(C(F)(F)F)cc43)nn2C2CCN(C(=O)CCOCCOCCOCCOCCNc3ccc4c(c3)C(=O)N(C3CCC(=O)NC3=O)C4=O)CC2)C1 (stereo not given)", 7.4],
  ["CNC(=O)N1CCc2c(c(N3CCCc4cc(-c5cnn(C)c5)c(C(F)F)cc43)nn2C2CCN(C(=O)CCOCCNc3ccc4c(c3)C(=O)N(C3CCC(=O)NC3=O)C4=O)CC2)C1 (stereo not given)", 19.5],
  ["CNC(=O)N1CCc2c(c(N3CCCc4cc(-c5cnn(CC(=O)NCCOCCNc6ccc7c(c6)C(=O)N(C6CCC(=O)NC6=O)C7=O)c5)c(C(F)F)cc43)nn2C2CCOCC2)C1 (stereo not given)", 15.1],
  ["CNC(=O)N1CCc2c(c(N3CCCc4cc(-c5cnn(CC(=O)NCCOCCOCCOCCOCCOCCOCCNc6ccc7c(c6)C(=O)N(C6CCC(=O)NC6=O)C7=O)c5)c(C(F)F)cc43)nn2C2CCOCC2)C1 (stereo not given)", 25],
  ["CNC(=O)N1CCc2c(c(N3CCN(C(=O)NCCOCCNc4ccc5c(c4)C(=O)N(C4CCC(=O)NC4=O)C5=O)c4cc(-c5cnn(C)c5)c(C(F)(F)F)cc43)nn2C2CCOCC2)C1 (stereo not given)", 21.4]
]}
